target: GST-SNAP25 FL (UniProt P60880)
Sequence (P60880 whole entry): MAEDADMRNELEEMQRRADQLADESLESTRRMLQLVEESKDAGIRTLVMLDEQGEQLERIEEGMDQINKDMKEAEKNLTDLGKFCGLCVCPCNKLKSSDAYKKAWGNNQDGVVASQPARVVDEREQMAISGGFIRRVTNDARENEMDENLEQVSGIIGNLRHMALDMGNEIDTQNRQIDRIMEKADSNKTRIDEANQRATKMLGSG
Please go through the items and note down their A450 with SNAP25 FL.

• D3 (antibody, V domains shown) VH: EVQLEESGGGLVQPGGSLKLSCAASGFTFSNYGMSWVRQTPDKRLELVATINSNGGTTYYPDSVKGRFTISRDNAKNTLYLQMSSLKSEDSAMYYCARDRDAMDYWGQGTSVTVSS VL: DVLMTQTPLSLPVSLGDQASISCRSSQSIVNSHGNTYLEWYLQKPGQSPKLLIYKVSNRFSGVPDRFSGSGSGTDFTLKISRVEAEDLGVYYCFQGSHVPWTFGGGTKLEIK = 0.125
• B4 (antibody, V domains shown) VH: EVKLVESGGGLVKPGGSLKLSCAASGFTFSNYGMSWVRQTPEKRLEWVATISSGGSYTYYPDSVKGRFTISRDNAKNTLYLQMSSLRSEDTAMYYCARHEGGGNPYFDYWGQGTTLTVSS VL: DVLMTQTPLSLPVSLGDQASISCRSSQSLVHSNGNTYLHWYLQKPGQSPKLLIYKVSNRFSGVPDRFSGSGSGTDFTLKISRVEAEDLGVYFCSQNTLVPWTFGGGTKLEIK = 2.16
• C24 (antibody, V domains shown) VH: EVKLVESGGGLVQPKGSLKLSCAASGYTFNTYAMNWVRQAPGKGLEWVARIRSKSNNYTTYYADSVKDRFTISRDDSQSMLYLQINNLKTEDTAMYYCVGQILYYYVGSPAWFAYWGQGTLVTVSA VL: DIVMTQSPASLAVSLGQRATISCRASKSVSTSGYSYMHWYQQKPGQPPKLLIFLASNLESGVPARFSGSGSGTDFTLNIHPVEEEDAATYYCQHSRELPWTFGGGTKLEIK = 0.001
• C7 (antibody, V domains shown) VH: QVQLVETGGGLVQPKGSLKLSCAASGFTFNTNAMNWVRQAPGKGLEWVARIRSKSNNYATYYADSVKDRFTISRDDSQSLLYLQMNNLKTEDTAMYYCVYGRSYGGLSYWGQGTLVTVSA VL: DIVMTQSPASLAVSLGQRATISCRASKSVSSSGYSYMHWYQQKPGQPPKLLIYLASNLESGVPARFSGSGSGTDFTLNIHPVEEEDAATYYCQHSRELPLTFGAGTKLELK = 0.001

Enquiry: Suppose we examine the binder C4 (antibody, V domains shown) VH: DVKLQESGPGLVKPSQSLSLTCTVTGYSITSDYAWNWIRQFPGNKLEWMGYISYSVGTRYNPSLKSRISITRDTSKNQFFLLLKSVTNEDTATYFCARKGEYGFAYWGQGTLVTVSA VL: DIVMTQSPASLAVSLGQRATISCRASKSVSTSGYSYMHWYQQKPGQPPKLLIYLASNLESGVPARFSGSGSGTDFTLNIHPVEEEDAATYYCQHSRELPLTFGAGTKLELK ; what A450 with SNAP25 FL value has been reported?
Return: 0.001
